Reported Kd values are given for each entry in this list.
- system-under-test: Succinate--CoA ligase [ADP-forming] subunit beta, mitochondrial (Homo sapiens, UniProt Q9P2R7); note: in the data inactive means no Kd found up to 30 µM
- Sequence (Q9P2R7 whole entry): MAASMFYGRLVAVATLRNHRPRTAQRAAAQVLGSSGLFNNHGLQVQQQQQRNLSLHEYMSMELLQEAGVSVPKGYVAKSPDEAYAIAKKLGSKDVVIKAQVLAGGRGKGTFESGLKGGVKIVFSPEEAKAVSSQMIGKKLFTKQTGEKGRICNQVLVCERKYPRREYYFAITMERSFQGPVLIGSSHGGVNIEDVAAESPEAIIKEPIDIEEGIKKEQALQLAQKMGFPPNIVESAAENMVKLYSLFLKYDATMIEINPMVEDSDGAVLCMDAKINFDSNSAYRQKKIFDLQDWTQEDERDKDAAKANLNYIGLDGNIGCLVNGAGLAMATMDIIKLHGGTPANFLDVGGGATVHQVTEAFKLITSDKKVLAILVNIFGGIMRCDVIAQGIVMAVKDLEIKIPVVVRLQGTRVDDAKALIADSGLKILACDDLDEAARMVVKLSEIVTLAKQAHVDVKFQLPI
The source made the active and inactive calls.

The value of Kd measured for the compound C=CCN(/C=C1/C(=O)O[C@H](COC)[C@@]2(C)C1=C(O)C(=O)C1=C2[C@H](OC(C)=O)C[C@]2(C)C(=O)CC[C@@H]12)CC=C turned out to be > 30 µM (inactive)

// recorded Kd for COCCN1CCN(Cc2ccc(-c3n[nH]c4c3C(=O)c3c(NC(=O)NN5CCOCC5)cccc3-4)cc2)CC1 : > 30 µM (inactive)

The measured Kd associated with C#Cc1cccc(Nc2ncnc3cc4c(cc23)OCCOCCOCCO4)c1 reads > 30 µM (inactive)

The compound listed as O=S(=O)(c1cccc2cnccc12)N1CCCNCC1 shows Kd equal to > 30 µM (inactive)

Moving on to another compound below.
Record CCc1cc2c(cc1N1CCC(N3CCOCC3)CC1)C(C)(C)c1[nH]c3cc(C#N)ccc3c1C2=O . Reported Kd: > 30 µM (inactive)

----------
Activity calls are given as the source filed them.
Below are compounds with their Kd as measured on Adenine phosphoribosyltransferase (Homo sapiens, UniProt P07741).
Sequence (P07741 whole entry): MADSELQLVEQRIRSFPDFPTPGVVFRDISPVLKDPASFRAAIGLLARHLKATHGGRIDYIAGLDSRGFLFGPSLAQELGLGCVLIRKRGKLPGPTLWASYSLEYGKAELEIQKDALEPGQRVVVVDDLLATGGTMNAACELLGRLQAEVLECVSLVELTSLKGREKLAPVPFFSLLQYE

The examples below pair each entry with its known result.
Item: O=S(=O)(c1cccc2cnccc12)N1CCCNCC1 | System: Adenine phosphoribosyltransferase (Homo sapiens, UniProt P07741) | Kd: > 30 µM (inactive)

Item COc1ccc(-c2ccc3ncc4c(c3c2)n(-c2ccc(N3CCNCC3)c(C(F)(F)F)c2)c(=O)n4C)cn1 [BGT-226 FREE BASE] ; assay system Adenine phosphoribosyltransferase (Homo sapiens, UniProt P07741); Kd reported as > 30 µM (inactive)

// compound Cc1cc(Nc2nc(N[C@@H](C)c3ncc(F)cn3)ncc2Cl)n[nH]1 , assay Adenine phosphoribosyltransferase (Homo sapiens, UniProt P07741), Kd value: > 30 µM (inactive)

# lookup: O=C(NOC[C@H](O)CO)c1ccc(F)c(F)c1Nc1ccc(I)cc1F on Adenine phosphoribosyltransferase (Homo sapiens, UniProt P07741), Kd = > 30 µM (inactive)

Please find the next compound below.
Record CN(c1ncccc1CNc1nc(Nc2ccc3c(c2)CC(=O)N3)ncc1C(F)(F)F)S(C)(=O)=O has Adenine phosphoribosyltransferase (Homo sapiens, UniProt P07741) Kd equal to > 30 µM (inactive)

----------
Overview of recorded Kd for various compounds
- system-under-test: Ribosomal protein S6 kinase alpha-3 (Homo sapiens, UniProt P51812); note: in the data inactive means no Kd found up to 30 µM
- Sequence (P51812 whole entry): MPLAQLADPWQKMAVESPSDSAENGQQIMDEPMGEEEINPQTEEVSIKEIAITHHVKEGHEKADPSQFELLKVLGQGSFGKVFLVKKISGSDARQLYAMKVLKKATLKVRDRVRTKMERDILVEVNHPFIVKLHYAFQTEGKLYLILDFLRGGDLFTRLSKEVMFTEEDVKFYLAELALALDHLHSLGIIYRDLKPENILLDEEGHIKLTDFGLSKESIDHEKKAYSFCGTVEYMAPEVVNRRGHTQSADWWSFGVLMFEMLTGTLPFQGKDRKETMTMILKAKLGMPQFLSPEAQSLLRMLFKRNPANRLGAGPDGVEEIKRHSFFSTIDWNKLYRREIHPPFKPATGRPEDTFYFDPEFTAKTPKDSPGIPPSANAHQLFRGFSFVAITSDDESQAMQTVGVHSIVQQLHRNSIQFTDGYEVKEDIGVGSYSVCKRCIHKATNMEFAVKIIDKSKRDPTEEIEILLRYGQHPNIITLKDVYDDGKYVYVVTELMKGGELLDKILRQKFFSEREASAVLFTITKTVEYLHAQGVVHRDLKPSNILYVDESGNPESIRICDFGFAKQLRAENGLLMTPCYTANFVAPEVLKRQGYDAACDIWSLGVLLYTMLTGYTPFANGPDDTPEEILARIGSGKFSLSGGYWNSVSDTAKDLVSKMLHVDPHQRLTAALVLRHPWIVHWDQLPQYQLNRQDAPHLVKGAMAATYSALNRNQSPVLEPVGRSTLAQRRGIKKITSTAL
Calls of active or inactive are those of the source.

Measured Kd for this entry O=C(Nc1ccc(OC(F)(F)F)cc1)c1sccc1NCc1ccnc2ccccc12 [OSI-930] on Ribosomal protein S6 kinase alpha-3 (Homo sapiens, UniProt P51812): > 30 µM (inactive)

Fill in: Ribosomal protein S6 kinase alpha-3 (Homo sapiens, UniProt P51812) Kd for C#Cc1cccc(Nc2ncnc3cc4c(cc23)OCCOCCOCCO4)c1 [ICOTINIB] = > 30 µM (inactive)

Switching to the query record.
Query Cc1cc(-c2cc(OC(=O)c3ccccc3)ccc2Cl)cc2nnc(Nc3ccc(OCCN4CCCC4)cc3)nc12 [TG100-801] on Ribosomal protein S6 kinase alpha-3 (Homo sapiens, UniProt P51812); Kd returned: > 30 µM (inactive)

----------
// endpoint Kd / system Dual specificity protein kinase CLK1 (Homo sapiens, UniProt P49759); note: in the data inactive means no Kd found up to 30 µM
The source made the active and inactive calls.

// below: answered molecules
Reported Kd for C[C@]1(O)C[C@@H](c2nc(-c3ccc4ccc(-c5ccccc5)nc4c3)c3c(N)nccn32)C1 was > 30 µM (inactive)

Value of Kd reported for the molecule O=C(NOC[C@H](O)CO)c1ccc(F)c(F)c1Nc1ccc(I)cc1F is > 30 µM (inactive)

The molecule listed as O=S(=O)(c1cccc2cnccc12)N1CCCNCC1 shows Kd equal to 0.152 µM

For this molecule ( Cn1cc(-c2[nH]c3cc(NC(=O)[C@H](N)C4CCCCC4)cc4c3c2C=NNC4=O)cn1 ), measured Kd is > 30 µM (inactive)

Reported Kd of CCc1cc2c(cc1N1CCC(N3CCOCC3)CC1)C(C)(C)c1[nH]c3cc(C#N)ccc3c1C2=O : 29.9 µM (active)

Next:
Documented Kd of Cc1ccc(C(=O)Nc2ccc(Oc3cc4cnn(C)c4cc3-c3cn[nH]c3)c(F)c2)c(=O)n1-c1ccc(F)cc1 : > 30 µM (inactive)

Note to self: Kd recorded for FC(F)(F)c1ccc(CNc2ccc(Cc3c[nH]c4ncc(Cl)cc34)cn2)cn1 was > 30 µM (inactive)

Lab note: measured Kd of O=C(NC[C@H](O)CO)c1ccncc1Nc1ccc(I)cc1F was > 30 µM (inactive)

----------
- system-under-test: Eukaryotic translation initiation factor 2-alpha kinase 1 (Homo sapiens); note: in the data inactive means no Kd found up to 30 µM
- Sequence (Q9BQI3 whole entry): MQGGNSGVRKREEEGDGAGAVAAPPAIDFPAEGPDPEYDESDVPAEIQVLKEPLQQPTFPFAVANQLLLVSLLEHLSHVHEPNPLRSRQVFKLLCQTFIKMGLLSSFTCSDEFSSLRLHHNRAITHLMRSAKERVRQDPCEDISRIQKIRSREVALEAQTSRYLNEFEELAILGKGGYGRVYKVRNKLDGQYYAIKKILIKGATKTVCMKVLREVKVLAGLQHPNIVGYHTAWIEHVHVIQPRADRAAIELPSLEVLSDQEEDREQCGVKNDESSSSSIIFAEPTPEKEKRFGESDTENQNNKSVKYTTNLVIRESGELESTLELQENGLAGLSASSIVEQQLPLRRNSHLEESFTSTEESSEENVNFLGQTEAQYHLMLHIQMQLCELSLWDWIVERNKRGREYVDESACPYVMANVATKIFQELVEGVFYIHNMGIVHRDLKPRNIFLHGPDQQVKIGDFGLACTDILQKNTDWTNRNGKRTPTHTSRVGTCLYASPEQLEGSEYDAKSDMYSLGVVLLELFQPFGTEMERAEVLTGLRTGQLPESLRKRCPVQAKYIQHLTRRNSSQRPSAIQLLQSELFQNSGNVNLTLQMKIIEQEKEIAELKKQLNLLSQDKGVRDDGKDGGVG
The source made the active and inactive calls.
The categories you may choose from are active, inactive

Answered examples (7):
Prompt: Which result was noted for this compound in the test: O=C(NOC[C@H](O)CO)c1ccc(F)c(F)c1Nc1ccc(I)cc1F [MIRDAMETINIB]
Response: inactive

Prompt: Hi, do you know how O=C(O)c1ccc2c(c1)nc(Nc1cccc(Cl)c1)c1ccncc12 [SILMITASERTIB] came out in this test?
Response: active

Prompt: // outcome(item) with item = O=C(NC[C@H](O)CO)c1ccncc1Nc1ccc(I)cc1F [PIMASERTIB]
Response: inactive

Prompt: For C=CCN(/C=C1/C(=O)O[C@H](COC)[C@@]2(C)C1=C(O)C(=O)C1=C2[C@H](OC(C)=O)C[C@]2(C)C(=O)CC[C@@H]12)CC=C [SONOLISIB] , what call appears in the results of this test?
Response: inactive

Prompt: Please indicate how the test categorized CCc1cc2c(cc1N1CCC(N3CCOCC3)CC1)C(C)(C)c1[nH]c3cc(C#N)ccc3c1C2=O [ALECTINIB] .
Response: inactive

Prompt: What did the test return for COc1cc2ncnc(Nc3ccc(O)cc3)c2cc1OC [WHI-P131] ?
Response: inactive

Prompt: Call for entry O=S(=O)(c1cccc2c(O)nccc12)N1CCCNCC1 [HYDROXYFASUDIL] :
Response: inactive

Next compound, please.
Prompt: Please indicate how the test categorized Cc1cc(C(=O)Nc2cc(Oc3ccc4nc(NC(=O)C5CC5)cn4n3)ccc2C)n(C)n1 [TAK-593] .
Response: inactive

----------
- system-under-test: Aurora kinase B (Homo sapiens); note: in the data inactive means no Kd found up to 30 µM
- Sequence (Q96GD4 whole entry): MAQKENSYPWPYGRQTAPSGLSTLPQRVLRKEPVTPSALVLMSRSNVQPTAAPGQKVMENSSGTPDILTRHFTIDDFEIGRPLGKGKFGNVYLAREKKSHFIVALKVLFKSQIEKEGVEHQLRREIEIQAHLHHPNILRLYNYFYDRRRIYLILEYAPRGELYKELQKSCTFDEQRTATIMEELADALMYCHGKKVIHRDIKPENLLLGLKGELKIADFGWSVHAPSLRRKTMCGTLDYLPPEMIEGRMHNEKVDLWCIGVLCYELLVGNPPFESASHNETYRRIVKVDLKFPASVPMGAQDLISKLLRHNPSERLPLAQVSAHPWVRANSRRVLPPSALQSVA
The source made the active and inactive calls.
Hi! Could you answer with just one of these? true = active, false = inactive

Prompt: Test call, this compound: Cc1ccc(C(=O)Nc2ccc(Oc3cc4cnn(C)c4cc3-c3cn[nH]c3)c(F)c2)c(=O)n1-c1ccc(F)cc1
Response: false

***
Prompt: Recorded test outcome, item COc1cc2ncnc(Nc3ccc(F)c(Cl)c3)c2cc1NC(=O)/C=C/CN1CCCCC1 [DACOMITINIB ANHYDROUS]
Response: false

Prompt: What did the test return for C=CC(=O)Nc1cccc(Nc2nc(Nc3ccc(N4CCN(C(C)=O)CC4)cc3OC)ncc2C(F)(F)F)c1 ?
Response: false

Prompt: Check the results log: what was the call for Cn1c(=O)c(F)c(Nc2ccc(I)cc2F)c2c(=O)n(C[C@@H](O)CO)cnc21 ?
Response: false

Prompt: Assay result, entry CN1CCN(c2nc(C3=C(c4c[nH]c5ccccc45)C(=O)NC3=O)c3ccccc3n2)CC1 — outcome?
Response: false

Prompt: Dear colleague, could you share the recorded outcome for COc1cc2ncnc(Nc3ccc(O)cc3)c2cc1OC when you have a moment?
Response: false

Prompt: Dear colleague, could you share the recorded outcome for CCOc1ccn(-c2ccc(F)cc2)c(=O)c1C(=O)Nc1ccc(Oc2ccnc(N)c2Cl)c(F)c1 when you have a moment?
Response: true

Prompt: Give the logged outcome of this assay for the following compound: COc1ccc(-c2ccc3ncc4c(c3c2)n(-c2ccc(N3CCNCC3)c(C(F)(F)F)c2)c(=O)n4C)cn1 [BGT-226 FREE BASE]
Response: false

----------
- system-under-test: 5'-AMP-activated protein kinase catalytic subunit alpha-1 (Homo sapiens, UniProt Q13131); note: in the data inactive means no Kd found up to 30 µM
- Sequence (Q13131 whole entry): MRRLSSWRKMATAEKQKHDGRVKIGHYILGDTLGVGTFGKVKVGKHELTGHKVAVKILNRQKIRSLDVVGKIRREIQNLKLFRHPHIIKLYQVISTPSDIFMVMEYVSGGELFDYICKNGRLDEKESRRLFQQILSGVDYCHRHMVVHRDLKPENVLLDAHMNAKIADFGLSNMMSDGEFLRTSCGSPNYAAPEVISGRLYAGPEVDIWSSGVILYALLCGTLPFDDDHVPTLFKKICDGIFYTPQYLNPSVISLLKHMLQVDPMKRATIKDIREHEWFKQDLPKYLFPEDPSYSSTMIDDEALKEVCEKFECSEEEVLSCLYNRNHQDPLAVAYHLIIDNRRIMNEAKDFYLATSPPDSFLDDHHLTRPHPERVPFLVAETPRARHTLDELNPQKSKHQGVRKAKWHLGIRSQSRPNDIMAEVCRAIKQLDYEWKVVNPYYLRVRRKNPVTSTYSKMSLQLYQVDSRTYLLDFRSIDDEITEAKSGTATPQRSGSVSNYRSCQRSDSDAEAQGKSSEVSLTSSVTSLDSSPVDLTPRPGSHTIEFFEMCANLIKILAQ
The source made the active and inactive calls.
Choose the fitting class; nothing outside active, inactive is accepted.

Prompt: Recorded test outcome, item Cc1ccc(C(=O)Nc2ccc(Oc3cc4cnn(C)c4cc3-c3cn[nH]c3)c(F)c2)c(=O)n1-c1ccc(F)cc1 [MERESTINIB]
Response: inactive

Prompt: What call does the record list for CNC(=O)c1ccc(Nc2ncc(C(F)(F)F)c(NCc3nccnc3N(C)S(C)(=O)=O)n2)cc1 [DEFACTINIB] ?
Response: inactive

Prompt: Tell me the assay call for O=C(Nc1ccc(OC(F)(F)F)cc1)c1sccc1NCc1ccnc2ccccc12 [OSI-930] please.
Response: inactive

Next compound, please.
Prompt: Per the assay record, what outcome was assigned to Cn1cc(-c2[nH]c3cc(NC(=O)[C@H](N)C4CCCCC4)cc4c3c2C=NNC4=O)cn1 ?
Response: active

----------
// Serine/threonine-protein kinase STK11 (Homo sapiens, UniProt Q15831) Kd records
Active and inactive are the calls of the source.

Query C=CC(=O)Nc1cccc(Nc2nc(Nc3ccc(N4CCN(C(C)=O)CC4)cc3OC)ncc2C(F)(F)F)c1 yields Kd of > 30 µM (inactive)

Entry COc1cc2ncnc3c2cc1OCCCCCN(C)Cc1ccc(Br)cc1N3 ; Kd = > 30 µM (inactive)

Measured Kd, C=CC(=O)Nc1cc(Nc2nccc(-c3cn(C)c4ccccc34)n2)c(OC)cc1N(C)CCN(C)C : > 30 µM (inactive)

GET /value?item= CCc1cc2c(cc1N1CCC(N3CCOCC3)CC1)C(C)(C)c1[nH]c3cc(C#N)ccc3c1C2=O &field=Kd returns > 30 µM (inactive)

Looking up c1cc(OCCN2CCCCC2)cc(-c2n[nH]c3ccc(-c4nc[nH]n4)cc23)c1 , I found its Kd recorded as > 30 µM (inactive)

Entry CNC(=O)c1cc(COc2nnc(Nc3ccc(Cl)cc3)c3ccoc23)ccn1 ; Kd = > 30 µM (inactive)

Others:
compound COc1cccc2cc(-c3nc([C@H]4CC[C@H](C(=O)O)CC4)n4ncnc(N)c34)[nH]c12 , Kd observed: > 30 µM (inactive)

Kd reading for O=S(=O)(c1cccc2c(O)nccc12)N1CCCNCC1 [HYDROXYFASUDIL] : > 30 µM (inactive)
